# Target: TRH-R (human TRH receptor) (Homo sapiens, UniProt P34981)
# Construct: gene TRHR; full-length human cDNA subcloned into pcDNA3.1(+)/hygromycin; stably expressed in HEK-EM 293 cells, 16,000 receptors/cell
# Sequence (P34981 1-398): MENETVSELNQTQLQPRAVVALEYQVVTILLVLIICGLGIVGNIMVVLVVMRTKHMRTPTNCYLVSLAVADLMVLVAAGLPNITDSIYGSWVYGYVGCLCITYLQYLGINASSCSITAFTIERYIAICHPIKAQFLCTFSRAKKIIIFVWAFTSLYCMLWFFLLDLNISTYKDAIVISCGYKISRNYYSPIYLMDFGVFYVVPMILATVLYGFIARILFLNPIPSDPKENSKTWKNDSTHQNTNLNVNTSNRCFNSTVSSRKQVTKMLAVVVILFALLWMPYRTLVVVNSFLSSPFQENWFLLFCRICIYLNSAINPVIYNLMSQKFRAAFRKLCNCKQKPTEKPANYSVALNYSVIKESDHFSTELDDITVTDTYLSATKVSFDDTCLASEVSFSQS
# Assay info: intracellular Ca2+ release, calcium […] dye, FLIPR
# Type: cell-based
# Run parameters: read-out: EC50 for Ca signaling
Quantity name: EC50 (nM)
Please reply with the bare figure in nM and do not write the unit itself.

response.value for CN1C(=O)C[C@@H](C(=O)N[C@@H](Cc2c[nH]cn2)C(=O)N2CCC[C@H]2C(N)=O)NC1=O (field: EC50) = 36
